Where do these numbers come from? They come from the DeepSol protein solubility set.

- assay-comment: soluble on expression in E. coli; label from the status in PepcDB or PDB records
quantity-measured: soluble on expression in E. coli

>>> result("MDLGIKGKKVIVTAASKGIGLAIAKRFLEEGAKVIISSNDESNLMKAYNKLKEIHSENVSYIKADLMNPHEVKSLVHEGYRKLGGLDVLAYVTGSPKPGNLFSLSDKDWMDAFNLLLLSAVVAVREAGQLMQSGGRIILSTSTTLRQPIDNLDLSNVVRLSLAGLIKVASRELGPKGILVNGVMPGWTKTERLLQIIRDRAIREGKSEDEVLKSIVADVPLGRAGEPEEIANVVLFLASNLSTYVTGALIPVDGGSIKGVF")
"not soluble"
>>> result("MGSDKIHHHHHHAGCAMIPPEPVVTGPLTAPPPPPPQPSARPNGSIYQPSAYGNYPLFEDRRPRNVGDIVTIVLEEKTNAAKGVATNTSRDGSATLGVAAAPRFMDGIINDKLDTDISGGNTANGTGKSSANNTFTGTITTTVIGVLPNGNLQIAGEKQIAINRGSEYVRFSGVVDPRSITGSNTVSSTRVADARIEYRSKGVMDEVQTMGWLQRFFLIASPF")
"not soluble"
